# method-notes: Dissociation constant, pKa of the compound
# Assay type: physicochemical
test-readout: pKa

                                     smiles  test_readout  observed_result
0  C[C@H]1C[C@H]2CSC(N)=N[C@@]2(c2ncc(NC(=O)c3ccc(OC(F)F)cn3)s2)CO1           pKa                7
1  C[C@H]1C[C@H]2CSC(N)=N[C@@]2(c2cc(NC(=O)c3ccc(OC(F)F)cn3)ccc2F)CO1           pKa              8.3
2  C[C@@]1(c2cc(NC(=O)c3ccc(C#N)cn3)ccc2F)CCC(N)=N1           pKa             11.1
3  C[C@H]1C[C@H]2CSC(N)=N[C@@]2(c2nc(NC(=O)c3ccc(OC(F)F)cn3)cs2)CO1           pKa              6.9
4  C[C@]1(c2cc(NC(=O)c3ccc(C#N)cn3)ccc2F)N=C(N)C[C@H]1C(F)(F)F           pKa                9
5  NC1=N[C@@]2(c3cc(CNCC(F)(F)F)c(F)cc3F)CO[C@@H](CF)C[C@H]2CS1           pKa              7.9
